Test system: Colletotrichum falcatum
protocol_notes: Antifungal activity against Glomerella tucumanensis assessed as mycelial growth inhibition at 10 ppm at 28 +/-2 degC after 7 days by food poison technique
Type: functional
experimental_conditions: 168 h, read-out: GI
Here, each record is paired with measured inhibition of growth at 10 ppm data.
measured_quantity: inhibition of growth at 10 ppm

- smiles_data: "CCOP(=S)(OCC)O/C(COc1ccccc1)=N\\N=C1/C(=O)Nc2ccccc21"
  measured_quantity: "inhibition of growth at 10 ppm"
  measured_value: "56.2%"
- smiles_data: "CCOP(=O)(OCC)O/C(=N\\N=C1/C(=O)Nc2ccccc21)c1ccc(Cl)cc1"
  measured_quantity: "inhibition of growth at 10 ppm"
  measured_value: "56.8%"
- smiles_data: "CCOP(=O)(OCC)O/C(COc1ccccc1P(=O)(OCC)OCC)=N\\N=C1/C(=O)Nc2ccccc21"
  measured_quantity: "inhibition of growth at 10 ppm"
  measured_value: "60.2%"
- smiles_data: "CCOP(=S)(OCC)O/C(COc1ccccc1P(=S)(OCC)OCC)=N\\N=C1/C(=O)Nc2ccccc21"
  measured_quantity: "inhibition of growth at 10 ppm"
  measured_value: "72.5%"
- smiles_data: "CCOP(=S)(OCC)O/C(=N\\N=C1/C(=O)Nc2ccccc21)c1ccccc1"
  measured_quantity: "inhibition of growth at 10 ppm"
  measured_value: "58.2%"

###

System: Fusarium oxysporum
protocol_notes: Antifungal activity against Fusarium oxysporum assessed as mycelial growth inhibition at 1000 ppm at 28 +/-2 degC after 7 days by food poison technique
Assay type: functional
experimental_conditions: 168 h, read-out: GI

- smiles_data: "CCOP(=S)(OCC)O/C(=N\\N=C1/C(=O)Nc2ccccc21)c1ccccc1P(=S)(OCC)OCC"
  inhibition of growth at 1000 ppm: "82.8%"
- smiles_data: "CCOP(=O)(OCC)O/C(COc1ccc(OP(=O)(OCC)OCC)cc1)=N\\N=C1/C(=O)Nc2ccccc21"
  inhibition of growth at 1000 ppm: "78.6%"
- smiles_data: "CCOP(=S)(OCC)O/C(=N\\N=C1/C(=O)Nc2ccccc21)c1ccc([N+](=O)[O-])cc1"
  inhibition of growth at 1000 ppm: "58.2%"
- smiles_data: "CCOP(=S)(OCC)O/C(COc1ccccc1P(=S)(OCC)OCC)=N\\N=C1/C(=O)Nc2ccccc21"
  inhibition of growth at 1000 ppm: "92.8%"
- smiles_data: "CCOP(=O)(OCC)O/C(=N\\N=C1/C(=O)Nc2ccccc21)c1ccccc1"
  inhibition of growth at 1000 ppm: "61.8%"
- smiles_data: "CCOP(=S)(OCC)O/C(=N\\N=C1/C(=O)Nc2ccccc21)c1ccccc1"
  inhibition of growth at 1000 ppm: "74.2%"

###

System: Curvularia pallescens
protocol_notes: Antifungal activity against Cochliobolus pallescens assessed as mycelial growth inhibition at 1000 ppm at 28 +/-2 degC after 7 days by food poison technique
Assay type: functional
experimental_conditions: 168 h, read-out: GI
In this section we review reported inhibition of growth at 1000 ppm values for a set of molecules.
measured_quantity: inhibition of growth at 1000 ppm (%)

- smiles_data: "CCOP(=O)(OCC)O/C(=N\\N=C1/C(=O)Nc2ccccc21)c1ccc(Cl)cc1"
  measured_quantity: "inhibition of growth at 1000 ppm"
  measured_value: 71.2
- smiles_data: "CCOP(=O)(OCC)O/C(COc1ccccc1)=N\\N=C1/C(=O)Nc2ccccc21"
  measured_quantity: "inhibition of growth at 1000 ppm"
  measured_value: 68.8
- smiles_data: "CCOP(=S)(OCC)O/C(COc1ccccc1P(=S)(OCC)OCC)=N\\N=C1/C(=O)Nc2ccccc21"
  measured_quantity: "inhibition of growth at 1000 ppm"
  measured_value: 93.8
- smiles_data: "CCOP(=O)(OCC)O/C(COc1ccc(Cl)cc1)=N\\N=C1/C(=O)Nc2ccccc21"
  measured_quantity: "inhibition of growth at 1000 ppm"
  measured_value: 82.6
- smiles_data: "CCOP(=S)(OCC)O/C(=N\\N=C1/C(=O)Nc2ccccc21)c1ccc([N+](=O)[O-])cc1"
  measured_quantity: "inhibition of growth at 1000 ppm"
  measured_value: 57.2
- smiles_data: "CCOP(=O)(OCC)O/C(=N\\N=C1/C(=O)Nc2ccccc21)c1ccc([N+](=O)[O-])cc1"
  measured_quantity: "inhibition of growth at 1000 ppm"
  measured_value: 51.8
- smiles_data: "CCOP(=S)(OCC)O/C(=N\\N=C1/C(=O)Nc2ccccc21)c1ccc(OP(=S)(OCC)OCC)cc1"
  measured_quantity: "inhibition of growth at 1000 ppm"
  measured_value: 81.4
- smiles_data: "CCOP(=O)(OCC)O/C(COc1ccccc1P(=O)(OCC)OCC)=N\\N=C1/C(=O)Nc2ccccc21"
  measured_quantity: "inhibition of growth at 1000 ppm"
  measured_value: 71.2
- smiles_data: "CCOP(=S)(OCC)O/C(COc1ccc([N+](=O)[O-])cc1)=N\\N=C1/C(=O)Nc2ccccc21"
  measured_quantity: "inhibition of growth at 1000 ppm"
  measured_value: 65.6
- smiles_data: "CCOP(=S)(OCC)O/C(COc1ccccc1)=N\\N=C1/C(=O)Nc2ccccc21"
  measured_quantity: "inhibition of growth at 1000 ppm"
  measured_value: 74.2
- smiles_data: "CCOP(=S)(OCC)O/C(COc1ccc(Cl)cc1)=N\\N=C1/C(=O)Nc2ccccc21"
  measured_quantity: "inhibition of growth at 1000 ppm"
  measured_value: 100
- smiles_data: "CCOP(=O)(OCC)O/C(=N\\N=C1/C(=O)Nc2ccccc21)c1ccc(OP(=O)(OCC)OCC)cc1"
  measured_quantity: "inhibition of growth at 1000 ppm"
  measured_value: 67.8
- smiles_data: "CCOP(=S)(OCC)O/C(=N\\N=C1/C(=O)Nc2ccccc21)c1ccccc1P(=S)(OCC)OCC"
  measured_quantity: "inhibition of growth at 1000 ppm"
  measured_value: 80.5
- smiles_data: "CCOP(=S)(OCC)O/C(COc1ccc(OP(=S)(OCC)OCC)cc1)=N\\N=C1/C(=O)Nc2ccccc21"
  measured_quantity: "inhibition of growth at 1000 ppm"
  measured_value: 100
- smiles_data: "CCOP(=O)(OCC)O/C(COc1ccc(OP(=O)(OCC)OCC)cc1)=N\\N=C1/C(=O)Nc2ccccc21"
  measured_quantity: "inhibition of growth at 1000 ppm"
  measured_value: 76.4
